- tested.on: T1, EsCas13d, nuclease-dead (Eubacterium siraeum, UniProt B0MS50, R295A;H300A;R849A;H854A)
- T1 sequence: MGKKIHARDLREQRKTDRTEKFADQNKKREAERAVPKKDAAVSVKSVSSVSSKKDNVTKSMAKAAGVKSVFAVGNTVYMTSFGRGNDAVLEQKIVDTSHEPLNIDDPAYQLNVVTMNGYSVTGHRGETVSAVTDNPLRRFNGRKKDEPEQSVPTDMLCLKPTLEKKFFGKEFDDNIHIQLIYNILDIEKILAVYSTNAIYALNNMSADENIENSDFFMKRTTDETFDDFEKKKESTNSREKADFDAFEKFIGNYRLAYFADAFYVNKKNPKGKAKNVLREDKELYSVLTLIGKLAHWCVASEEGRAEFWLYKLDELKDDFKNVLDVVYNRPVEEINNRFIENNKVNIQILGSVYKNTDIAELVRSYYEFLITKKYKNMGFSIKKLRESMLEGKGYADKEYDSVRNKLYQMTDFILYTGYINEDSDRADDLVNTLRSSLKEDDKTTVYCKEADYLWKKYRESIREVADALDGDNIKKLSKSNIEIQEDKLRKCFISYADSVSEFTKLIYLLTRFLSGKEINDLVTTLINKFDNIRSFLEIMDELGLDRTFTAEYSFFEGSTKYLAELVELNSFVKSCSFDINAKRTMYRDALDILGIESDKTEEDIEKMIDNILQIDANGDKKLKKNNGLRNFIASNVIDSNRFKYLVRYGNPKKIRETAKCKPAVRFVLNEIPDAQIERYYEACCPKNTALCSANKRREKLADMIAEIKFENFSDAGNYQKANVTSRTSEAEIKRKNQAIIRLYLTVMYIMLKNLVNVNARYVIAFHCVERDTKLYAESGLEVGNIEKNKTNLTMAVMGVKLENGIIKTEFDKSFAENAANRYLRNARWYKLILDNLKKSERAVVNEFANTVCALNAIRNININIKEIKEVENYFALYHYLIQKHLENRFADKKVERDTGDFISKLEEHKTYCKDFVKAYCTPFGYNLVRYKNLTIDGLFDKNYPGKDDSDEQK
- test.method.notes: crRNA (strand 1, pre-loaded); Mg2+; 40 mM Tris-HCl pH 7.5, 150 mM NaCl, 6 mM MgCl2, 1 mM DTT, 0.1% Tween-20, 0.2 mg/ml BSA; 25 C; 10 min per concentration, then washed
- setup.conditions: tags: His6-TwinStrep-SUMO cleaved; N-terminal SNAP kept (SNAP-Surface 488); label: 3' end held by stalled T7 RNA polymerase
readout.label: pKd
For clarity, pKd is expressed as the negative log10 of concentration in mol/L.

In the examples that follow, each entry is paired with its recorded pKd.
target 1 insG 3' of 16,insC 3' of 10 (mixed) RNA 1: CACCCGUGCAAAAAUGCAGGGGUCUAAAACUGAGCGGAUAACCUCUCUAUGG RNA 2: GGGAAUGGAUCCACAUCUACGAAUUCGUACCAUAGAGGAGGUUCAUCCGCUCACCGAGAUCGGAAGAGCACACGU :: 7.40
target 3 C1G,G3U (mixed) RNA 1: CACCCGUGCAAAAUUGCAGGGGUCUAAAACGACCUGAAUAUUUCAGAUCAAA RNA 2: GGGAAUGGAUCCACAUCUACGAAUUCGUUUUUGAUCUGAAAUAUUCAGUUGUGCAGAUCGGAAGAGCACACGU :: 7.73
target 2 MT 5'PFS CGC 3'PFS UGC (mixed) RNA 1: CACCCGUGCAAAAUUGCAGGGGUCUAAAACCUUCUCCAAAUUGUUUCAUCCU RNA 2: GGGAAUGGAUCCACAUCUACGAAUUCCGCAGGAUGAAACAAUUUGGAGAAGUGCAGAUCGGAAGAGCACACGU :: 8.22
target 2 MT 5'PFS GAG 3'PFS CGG (mixed) RNA 1: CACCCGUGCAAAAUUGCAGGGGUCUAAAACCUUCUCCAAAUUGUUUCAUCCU RNA 2: GGGAAUGGAUCCACAUCUACGAAUUCGAGAGGAUGAAACAAUUUGGAGAAGCGGAGAUCGGAAGAGCACACGU :: 8.24
target 1 insA 3' of 21,insA 3' of 7 (mixed) RNA 1: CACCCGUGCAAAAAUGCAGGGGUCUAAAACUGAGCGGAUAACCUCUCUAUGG RNA 2: GGGAAUGGAUCCACAUCUACGAAUUCGUACCAAUAGAGAGGUUAUCACGCUCACCGAGAUCGGAAGAGCACACGU :: 7.90

Problem: I am curious: what pKd value has been reported for target 3 insC 3' of 11,insG 3' of 7 (mixed) RNA 1: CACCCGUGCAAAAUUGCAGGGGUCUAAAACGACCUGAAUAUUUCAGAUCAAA RNA 2: GGGAAUGGAUCCACAUCUACGAAUUCGUUUUUGAUCUGAAACUAUUGCAGGUCUGCAGAUCGGAAGAGCACACGU ?
Result: 7.31

Problem: Item under review: target 1 del4,del7 (mixed) RNA 1: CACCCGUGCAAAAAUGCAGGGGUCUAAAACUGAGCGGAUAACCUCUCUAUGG RNA 2: GGGAAUGGAUCCACAUCUACGAAUUCGUACCAUAGAGAGGUUAUCGUCACCGAGAUCGGAAGAGCACACGU . Reported pKd?
Result: 8.27

Problem: Request the reported pKd associated with target 1 C6U,G15C (mixed) RNA 1: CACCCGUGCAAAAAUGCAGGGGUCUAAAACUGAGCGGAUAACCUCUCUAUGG RNA 2: GGGAAUGGAUCCACAUCUACGAAUUCGUACCAUAGACAGGUUAUCUGCUCACCGAGAUCGGAAGAGCACACGU
Result: 7.21
